# Tested on: A498 renal
# EXPERIMENT NOTES: NCI tumour cell line growth inhibition, 48 h
Give measured GI50 for each item. Keep answers brief.

Lookup result for C#Cc1cnc(=O)n(C2CC(O)C(CO)O2)c1 (stereo not drawn) ; measured GI50: > 100 µM

Lookup result for `COc1cc2c3c(cccc3c1)C(=O)N(CCN1CCCC1)C2=O` ; measured GI50: 1.96 µM

Lookup result for `Oc1ccccc1/C=N/Nc1ccc2ccccc2n1` ; measured GI50: 7.03 µM

Lookup result for `N#Cc1c(NC(=O)c2cccc(C(F)(F)F)c2)sc2c1CCC(=O)C2` ; measured GI50: 1.71 µM

Lookup result for `COc1cc(-n2cc(-c3ccc(Cl)c(Cl)c3)nc2SCc2ccccc2)cc(OC)c1OC` ; measured GI50: > 100 µM

Lookup result for `O=C1/C(=C/c2ccc(F)cc2)CCOc2ccc([N+](=O)[O-])cc21` ; measured GI50: 17.4 µM

Lookup result for `O=C(CCN1CCN(c2cnc3ccccc3n2)CC1)c1csc2ccccc12` ; measured GI50: 47.4 µM

Lookup result for `COc1cccc(/C=C/C(=O)c2cc3c(N)c(C(=O)Nc4ccccc4C)sc3nc2C)c1` ; measured GI50: 0.989 µM
